// values below are reported DC50
# Assayed System: UniProtKB Q9NWZ3
# Sequence (Q9NWZ3 whole entry): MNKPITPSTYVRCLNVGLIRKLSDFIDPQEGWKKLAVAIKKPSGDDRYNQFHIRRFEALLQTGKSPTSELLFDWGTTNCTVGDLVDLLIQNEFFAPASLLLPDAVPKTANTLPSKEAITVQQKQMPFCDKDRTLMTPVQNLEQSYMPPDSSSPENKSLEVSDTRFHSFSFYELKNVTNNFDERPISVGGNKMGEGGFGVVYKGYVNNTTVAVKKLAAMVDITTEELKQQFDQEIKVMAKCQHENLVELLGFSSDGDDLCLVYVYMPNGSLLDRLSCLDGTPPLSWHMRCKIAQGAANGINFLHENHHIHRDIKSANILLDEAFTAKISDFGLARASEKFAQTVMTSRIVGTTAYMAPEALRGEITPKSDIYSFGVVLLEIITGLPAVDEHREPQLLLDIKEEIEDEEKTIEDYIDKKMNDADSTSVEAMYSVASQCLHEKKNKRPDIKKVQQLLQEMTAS
# Test Protocol: IRAK4 MSD degradation in OCI-LY10
# Type: cell-based
# Assay Setup: OCI-LY10, 4 hrs, MSD; read-out: IRAK4 MSD degradation in OCI-LY10 at 4 hrs: Average external-Abs DC50

Molecule	Data Value
CC[C@@H]1CC(=O)N[C@@H]1COc1ncc(C#CC2CCN(CCCOCCCc3cccc4c3n(C)c(=O)n4C3CCC(=O)NC3=O)CC2)c2cc(C(N)=O)c(OC)cc12 (stereo partly shown)	> 1000 nM

Problem: So what does the record say about DC50 for "CN(CCCOCCCNC(=O)c1ccc(CNCc2ccc(-c3ccc4c(cnn4CC4CC4)c3)cc2)cc1)C(=O)[C@H]1CC[C@H](n2cc(NC(=O)c3coc(-c4ccnc(NCC5CC5)c4)n3)c(C(F)F)n2)CC1" ?
Solution: > 1000 nM

Problem: So what does the record say about DC50 for CN(C(=O)c1coc(-c2ccnc(NCC3CC3)c2)n1)c1cn([C@H]2CC[C@H](CN(C)C3CCN(Cc4cccc5c4n(C)c(=O)n5C4CCC(=O)NC4=O)CC3)CC2)nc1C(F)F (stereo partly shown) ?
Solution: 100 to 1000 nM

Problem: So what does the record say about DC50 for Cn1c(=O)n(C2CCC(=O)NC2=O)c2cccc(CCCN3CCO[C@@H](CNC[C@H]4CC[C@H](n5cc(NC(=O)c6coc(-c7ccnc(NCC8CC8)c7)n6)c(C(F)F)n5)CC4)C3)c21 (stereo partly shown) ?
Solution: < 10 nM

Problem: So what does the record say about DC50 for Cn1c(=O)n(C2CCC(=O)NC2=O)c2cccc(CCCOC3CCN(C[C@H]4CC[C@H](n5cc(NC(=O)c6cnn7ccc(N[C@@H]8CCCC[C@@H]8O)nc67)c(C(F)(F)F)n5)CC4)CC3)c21 (stereo partly shown) ?
Solution: 10 to 100 nM

Problem: So what does the record say about DC50 for Cn1c(=O)n(C2CCC(=O)NC2=O)c2cccc(CN3CCC(O[C@H]4C[C@H](N(C)C[C@H]5CC[C@H](n6cc(NC(=O)c7coc(-c8ccnc(NCC9CC9)c8)n7)c(C(F)F)n6)CC5)C4)CC3)c21 (stereo partly shown) ?
Solution: 10 to 100 nM

Problem: So what does the record say about DC50 for CN(CC1CCN(c2cccc3c2C(=O)N(C2CCC(=O)NC2=O)C3=O)CC1)C[C@H]1CC[C@H](n2cc3cc(NC(=O)c4cccc(C(F)(F)F)n4)c(C(C)(C)O)cc3n2)CC1 (stereo partly shown) ?
Solution: 10 to 100 nM

Problem: So what does the record say about DC50 for CN(CCCOCCCNc1cccc2c1C(=O)N(C1CCC(=O)NC1=O)C2=O)Cc1ccc(-n2cc(NC(=O)c3cnn4ccc(N5C[C@H]6C[C@@H]5CO6)nc34)c(C(F)F)n2)cc1 (stereo partly shown) ?
Solution: > 1000 nM

Problem: So what does the record say about DC50 for Cn1c(=O)n(C2CCC(=O)NC2=O)c2cccc(CCCOCCC(=O)N3CCN([C@H]4CC[C@H](Nc5ncnc6ccc(C#N)cc56)CC4)CC3)c21 (stereo partly shown) ?
Solution: > 1000 nM

Problem: So what does the record say about DC50 for CN(C[C@H]1CC[C@H](n2cc(NC(=O)c3coc(-c4ccnc(NCC5CC5)c4)n3)c(C(F)F)n2)CC1)C1CCN(Cc2cccc3c2n(C)c(=O)n3C2CCC(=O)NC2=O)CC1 (stereo partly shown) [I-75] ?
Solution: < 10 nM

Source listed as patent US11352350B2.
